# Tested system: ATX (Homo sapiens (Human))
# Assay notes: ATX enzyme inhibition assay (Amplex UltraRed/choline oxidase/HRP, 16:0 Lyso PC substrate)
# Type: biochemical
# Assay conditions: assay buffer pH 8.5; read-out: IC50 (nM) pH 8.5
Quantity name: IC50 (nM)

| Compound | Measure unit | IC50 |
| --- | --- | --- |
| CN(c1nc(-c2ccc(F)cc2)c(C#N)s1)c1c2c(nc3c(F)cc(N4CCN(CC(=O)N5CC6(CCS(=O)(=O)CC6)C5)CC4)cc13)CC2 [Example F4] | nM | 19.6 |
| C[C@H]1CN(CC(=O)N2CC(O)C2)CCN1c1cc(F)c2nc3c(c(N(C)c4nc(-c5ccc(F)cc5)c(C#N)s4)c2c1)CCC3O (stereo partly drawn) [Example E7] | nM | 15.4 |
| CN(c1nc(-c2ccc(F)cc2)c(C#N)s1)c1c2c(nc3c(F)cc(N4CC5(CN(C(=O)C6CCOCC6)C5)C4)cc13)[C@H](O)CC2 (single isomer, unassigned) [Example E14-b] | nM | 14.7 |

###

# Tested system: ATX (Homo sapiens (Human), UniProt Q13822)
# Assay notes: ATX enzyme inhibition assay (Amplex UltraRed/choline oxidase/HRP, 16:0 Lyso PC substrate)
# Type: biochemical
# Assay conditions: assay buffer pH 7.5; read-out: IC50 (nM) pH 7.5
Quantity name: IC50 (nM)

# example entries with known answers
| Given smiles | Recorded number |
| --- | --- |
| CN(c1nc(-c2ccc(F)cc2)c(C#N)s1)c1c2c(nc3c(F)cc(N4CCN(CC(=O)N5CC(CO)C5)CC4)cc13)CCC2 | 112 |
| CN(c1nc(-c2ccc(F)cc2)c(C#N)s1)c1c2c(nc3c(F)cc(N4CC5(CCN(C(=O)[C@@H]6CCOC6)CC5)C4)cc13)CCC2 | 78.5 |

[a] CN(c1nc(-c2ccc(F)cc2)c(C#N)s1)c1c2c(nc3ccc(N4CCN(CC(=O)N5CC(O)C5)CC4)cc13)CCO2
[b] CN(c1nc(-c2ccc(F)cc2)c(C#N)s1)c1c2c(nc3c(F)cc(N4CC5(CN(C(=O)[C@@H]6CCOC6)C5)C4)cc13)CCC2
[c] CN(c1nc(-c2ccc(F)cc2)c(C#N)s1)c1c2c(nc3cnc(N4CCN(CC(=O)N5CC(O)C5)CC4)cc13)CCC2
Ask: Please list the entries, largest IC50 first. Give the labels in the order requested.
Reply: c, a, b
(c: 645 nM, a: 214 nM, b: 41.6 nM)

###

# Assay notes: Pharmacokinetic test in mice
# Assay type: in vivo, ICR mice
# Assay conditions: male, ICR, mouse, plasma, 5 mg/kg, PO - 5 mpk
Quantity name: Cmax (ng/mL)

| Compound | Cmax, ng/mL |
| --- | --- |
| CN(c1nc(-c2ccc(F)cc2)c(C#N)s1)c1c2c(nc3c(F)cc(N4CC5(CN(C(=O)C(C)(C)O)C5)C4)cc13)[C@](C)(O)CC2 (single isomer, unassigned) | 3140 |
| CN(c1nc(-c2ccc(F)cc2)c(C#N)s1)c1c2c(nc3ncc(N4CC5(CN(C(=O)[C@@H]6CCOC6)C5)C4)cc13)CC2 | 4280 |
| Cc1cc(N2CC3(CN(C(=O)C(C)(C)O)C3)C2)nc2c(N(C)c3nc(-c4ccc(F)cc4)c(C#N)s3)c3c(nc12)C(C)(O)CC3 (centres unmarked) | 2830 |
| CN(c1nc(-c2ccc(F)cc2)c(C#N)s1)c1c2c(nc3c(F)cc(N4CC5(CN(C(=O)[C@H]6CCOC6)C5)C4)cc13)COC2 | 3330 |
| Cc1cc(N2CC3(CN(C(=O)C(C)(C)O)C3)C2)cc2c(N(C)c3nc(-c4ccc(F)cc4)c(C#N)s3)c3c(nc12)COC3 | 3480 |
